molecular target: BRD3-BD1 (Homo sapiens (Human), UniProt Q15059); assay: AlphaLisa bromodomain binding assay, BRD3-BD1; settings: Table 6; read-out: BRD3(1) IC50
Sequence (Q15059 34-140): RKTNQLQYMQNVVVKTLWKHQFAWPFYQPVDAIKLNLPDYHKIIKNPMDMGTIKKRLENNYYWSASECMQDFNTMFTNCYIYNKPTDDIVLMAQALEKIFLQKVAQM
Kindly supply the reported pIC50 values for the records listed here.
Field pIC50 (float): negative decimal logarithm of the concentration in molar.

INPUT: Record request: pIC50 value, item O=S(=O)(Nc1cccc(-n2ccc3cnc(Nc4ccc(N5CCNCC5)cc4)nc32)c1)C1CC1 [drawing 296]
OUTPUT: 6.04

INPUT: Try the molecule `CN(C)C1CCN(c2ccc(Nc3ncc4scc(-c5ccc(F)c(NS(=O)(=O)C(C)(C)C)c5)c4n3)cc2F)CC1`
OUTPUT: 6.96

INPUT: Now this one: `CN1CCN(c2ccc(Nc3ncc4ccn(-c5cccc(NS(=O)(=O)C(C)(C)C)c5)c4n3)cc2C#N)CC1`
OUTPUT: 6.61

INPUT: Would you mind doing `CN(C)C1CCN(c2ccc(Nc3ncc4scc(-c5ccc(F)c(NS(=O)(=O)C6(C)CC6)c5)c4n3)cc2F)CC1` as well?
OUTPUT: 6.71

INPUT: Repeat with `CC(C)(C)S(=O)(=O)Nc1cccc(-n2ccc3cnc(Nc4ccc(C5CCNCC5)cc4)nc32)c1`
OUTPUT: 6.24

INPUT: How about Cc1cnc(Nc2ccc(N3CCN(C)CC3)cc2)nc1Nc1cccc(NS(=O)(=O)C(C)(C)C)c1 [drawing 205] ?
OUTPUT: 6.67

INPUT: Another molecule: CN1CCN(c2ccc(Nc3ncc4ccn(-c5ccc(F)c(NS(=O)(=O)C(C)(C)C)c5)c4n3)cc2)CC1 [drawing 295]
OUTPUT: 6.96

INPUT: Cool, now `CN1CCC(NC(=O)c2ccc(Nc3ncc4ccn(-c5cccc(NS(=O)(=O)C(C)(C)C)c5)c4n3)cc2F)CC1`
OUTPUT: 7.05

----------
Please go through the items and note down their IC50.
target: BRD4-BD1 (Homo sapiens (Human), UniProt O60885); assay: AlphaLisa bromodomain binding assay, BRD4-BD1; conditions: Table 6; read-out: BRD4(1) IC50
Give the value, in units of µM, as a plain number.

INPUT: Can you look up the measured IC50 of `COc1cc(Nc2ncc3ccn(-c4ccc(F)c(NS(=O)(=O)C(C)(C)C)c4)c3n2)ccc1N1CCN(C)CC1` for me?
OUTPUT: 0.272

INPUT: Next molecule: CC1CNCC(C)C1Nc1nc(Nc2cccc(NS(=O)(=O)C(C)(C)C)c2)c2ccsc2n1 (centres unmarked)
OUTPUT: 10

INPUT: Next up: `CN1CCC(c2ccc(Nc3ncc4ccn(-c5cccc(NS(=O)(=O)C6CC6)c5)c4n3)cc2)CC1`
OUTPUT: 2.72

INPUT: Let us now turn to CN(C)C1CCN(c2ccc(Nc3ncc4ccn(-c5cccc(NS(=O)(=O)C(C)(C)C)c5)c4n3)cc2F)CC1 [drawing 371]
OUTPUT: 0.131

INPUT: Thanks! And CN(C)C1CCN(c2ccc(Nc3ncc4ccn(-c5cccc(NS(=O)(=O)C(C)(C)C)c5)c4n3)cc2)CC1 [drawing 409] ?
OUTPUT: 0.229

INPUT: Subsequent entry: `CN1CCC(Nc2nc(Nc3cccc(NS(=O)(=O)C(C)(C)C)c3)c3ccsc3n2)CC1`
OUTPUT: 0.376

INPUT: Now give it for `CN1CCN(c2ccc(Nc3cc(Nc4cccc(NS(=O)(=O)C(C)(C)C)c4)c4sccc4n3)cc2)CC1` too.
OUTPUT: 2.86

INPUT: Next record, please: CN(C)C1CCN(c2ccc(Nc3ncc4ccn(-c5ccc(F)c(NS(=O)(=O)C(C)(C)C)c5)c4n3)cc2F)CC1 [drawing 397]
OUTPUT: 0.063

Ref: patent US11279703B2
